Data provenance is patent US20220017615A1.

- assayedTarget: T1, biotin-labeled CD47 extracellular domain protein (CD47-ECD) (UniProt Q08722 19-139, limits assumed, biotin-labeled (sites not given))
- T1 construct: extracellular domain; also called CD47 protein
- T1 sequence (Q08722 19-139 limits assumed): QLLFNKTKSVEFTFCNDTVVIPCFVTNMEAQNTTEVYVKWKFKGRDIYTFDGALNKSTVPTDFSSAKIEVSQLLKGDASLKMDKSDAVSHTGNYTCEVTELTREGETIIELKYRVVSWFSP
- testSummary: blocking ELISA, biotin-CD47-ECD on coated SIRPα-hFc; Ab 1.6 nM
measuredQuantity: OD450 nm of CD47 bound to SIRPα

51E2F11 (antibody, V domains shown, Murine hybridoma antibody purified on protein G) VH: EVQLQQSGAELVKPGASVKLSCTASGFNIKDHYIHWMNQRTEQGLEWIGRIDPDDGETRYAPKFRGKATLTADTSSNTAYLQFSSLTSEDTAVYHCTRATTITRDWYFDVWGTGTTVTVSS VL: DIVMTQSQKFMSTSVGDRVSITCKASQNVRTSVAWYQQKPGQSPKALIYLASNRHTGIPDRFTGSGSGTDFTLTIRNVQSEDLADYFCLQHWDYPLTFGAGTKLELK : 0.32
132D1E5 (antibody, V domains shown, Murine hybridoma antibody purified on protein G) VH: QVQLQQPGAELVRPGSSVKLSCKASGYTFTNNWMHWVKQRPLQGLEWIGNIDPSDSETHYNQKFKDKATLTVDKSSTTAYIQLSSLTSEDSAVYYCARWRGGGRGAMDYWGQGTSVTVSS VL: DVQITQSPSYLAASPGETITINCRTSKNISKFLAWYQEKPGKTNKLLIYSGSTLQSGIPSRFSGSGSGTDFTLTISNLEPEDFAMYYCQQHNEYPWTFGRGTKLEIK : 0.16
54G8G6 (antibody, V domains shown, Murine hybridoma antibody purified on protein G) VH: QVQLQQPGADLVKPGASVKMSCKASGYTFTSYWIIWVKQRPGQGLEWIGDINPGRGSPNYNEKFKRKATLTVDTSSSTAYMQLSSLTSEDSAVYYCVRGGLRRFDHWGQGTLVTVSA VL: ENVLTQSPAIMSASPGEKVTMTCRASSSVSSSYLHWYQQKSGASPKLWIYSTSTLASGVPARFSGSGSGTSYSLTISSVEAEDAATYYCQQYSGYPYTFGGGTKLEIK : 0.13
